Target: human Farnesoid X receptor ligand-binding domain/Gal4 DNA binding domain chimera (Homo sapiens (Human))
Sequence (Q96RI1 262-486, change not shown): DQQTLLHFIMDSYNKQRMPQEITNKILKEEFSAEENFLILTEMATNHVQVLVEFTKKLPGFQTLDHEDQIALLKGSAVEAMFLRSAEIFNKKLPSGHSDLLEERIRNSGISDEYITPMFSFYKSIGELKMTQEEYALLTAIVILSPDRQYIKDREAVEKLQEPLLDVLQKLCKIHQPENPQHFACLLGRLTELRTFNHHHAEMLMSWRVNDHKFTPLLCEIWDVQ
Sequence (P04386 1-147 partner): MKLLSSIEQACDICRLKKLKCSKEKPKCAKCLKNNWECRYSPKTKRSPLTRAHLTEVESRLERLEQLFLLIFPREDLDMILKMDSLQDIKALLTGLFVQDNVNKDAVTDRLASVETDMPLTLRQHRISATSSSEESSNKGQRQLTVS
Test: Cell-based assay of FXR activation (FXR-UAS-bla HEK 293T beta-lactamase reporter)
Conditions: cellular FXR beta-lactamase reporter assay, FXR-UAS-bla HEK 293T cells, 16 h; pEC50 = -log EC50
pEC50: −log10 of the molar value.
measurement-label: pEC50

[[record]]
compound = "Cc1cccc(F)c1-c1noc(C2CC2)c1CO[C@@H]1C[C@@H]2C[C@H]1C(=O)N2c1ccc(C(=O)O)cc1"
value_prefix = "="
result = 8.00

[[record]]
compound = "N#Cc1c(F)cc(N2C[C@@H]3C[C@H]2C[C@H]3OCc2c(-c3c(Cl)cccc3Cl)noc2C2CC2)cc1F"
value_prefix = ">"
result = 7.40

[[record]]
compound = "O=C(O)c1cc(C(F)(F)F)c2nc(N3C[C@@H]4C[C@H]3C[C@H]4OC(=O)c3c(-c4c(Cl)cccc4Cl)noc3C3CC3)sc2c1"
value_prefix = "="
result = 7.40

